Provenance of the data: PubChem BioAssay (NCI)

Test system: MCF7 breast
Method: NCI-60 one-dose screen, 48 h (100 = growth as untreated, 0 = no growth, -100 = all killed)
Conditions Used: 10 µM unless noted
The panel holds about 83,000 compounds, 20% with a hit somewhere; the sample as a whole holds those more often. Calls of active or inactive are those of the source. The calls were made as follows: active = growth percent below 10; inactive = the rest.
Listed here: items and their measured growth.

Compound	Result
CC(C)=CCC[C@](C)(O)[C@H]1CC[C@]2(C)[C@@H]1CC[C@@H]1[C@@]3(C)C/C(=C/c4ccc(Br)cc4)C(=O)C(C)(C)[C@@H]3CC[C@]12C	82.2% (inactive)
COC(=O)[C@]12CC[C@@H](C(=O)/C=C/c3cccnc3)[C@@H]1[C@H]1CC[C@@H]3[C@@]4(C)C/C(=C/c5cccnc5)C(=O)C(C)(C)[C@@H]4CC[C@@]3(C)[C@]1(C)CC2	-54.2% (active)
CCOC(=O)c1ccc2c(c1)[n+](=O)c(C(=O)C1CCCS1)c(C(F)(F)F)n2[O-] (stereo not drawn)	-68.1% (active)
O=S(=O)(NCCNc1cc(-c2cn(-c3ccccc3)nc2-c2cccc(O)c2)ccn1)c1cccc(F)c1	21.4% (inactive)
C=C(C)[C@@H]1CC[C@]2(C=NCCCNCCCCNCCCN)CC[C@]3(C)[C@H](CC[C@@H]4[C@@]5(C)CCCNC(C)(C)[C@@H]5CC[C@]43C)[C@@H]12	89.4% (inactive)

For the compound `Cc1ccc2c(c1)c(-c1nc(-c3c[nH]c4ncccc34)cs1)cn2C` , what growth is on record?
17.4% (inactive)

Same thing, different compound: `O=C1NC(=Nc2ccc(S(=O)(=O)Nc3nccs3)cc2)S/C1=C\c1coc2ccccc2c1=O`
88% (inactive)

Same thing, different compound: `CNC(=O)c1cc(Oc2ccc3nc(NC(=O)Nc4ccc(Cl)cc4)sc3c2)ccn1`
69.5% (inactive)
